MEASURED ON: human recombinant KAT-II (Homo sapiens (Human))
ASSAY OVERVIEW: KAT-II inhibitory test
TEST PARAMETERS: 3.0 μmol/L kynurenine, 37° C., 1 hr, pH 8.0; kynurenic acid quantified by HPLC
Description: The compounds described in the above-mentioned Examples were used for the KAT-II inhibitory test. Preparation of Human Recombinant KAT-II Human recombinant KAT-II was prepared as follows. […] The inhibitory action of the test compound on human recombinant KAT-II was determined by the following method. […] The resultant kynurenic acid was quantified as follows by high performance liquid chromatography. […]
MEASURED QUANTITY: IC50 (nM)
Just the number please, in nM, no unit attached.

COCc1nc2sc(N3CCC[C@@H]3C(=O)NCc3ccccc3)nc2c(=O)n1C1CCOCC1
10
CC(C)(F)c1nc2sc(N3CCCN3C(=O)Oc3ccccc3)nc2c(=O)[nH]1
110
CCc1nc2sc(N3CCC[C@@H]3C(=O)CNc3ccccc3)nc2c(=O)n1C
10

Here is another compound to look at.
Note to self: IC50 of Cc1ccccc1-c1nc2sc([C@H]3CCCN3C(=O)Oc3ccccc3)nc2c(=O)[nH]1 with human recombinant KAT-II (Homo sapiens (Human)) was 40

###

MEASURED ON: human recombinant KAT-II (Homo sapiens (Human), UniProt Q8N5Z0)
Sequence (Q8N5Z0 30-425): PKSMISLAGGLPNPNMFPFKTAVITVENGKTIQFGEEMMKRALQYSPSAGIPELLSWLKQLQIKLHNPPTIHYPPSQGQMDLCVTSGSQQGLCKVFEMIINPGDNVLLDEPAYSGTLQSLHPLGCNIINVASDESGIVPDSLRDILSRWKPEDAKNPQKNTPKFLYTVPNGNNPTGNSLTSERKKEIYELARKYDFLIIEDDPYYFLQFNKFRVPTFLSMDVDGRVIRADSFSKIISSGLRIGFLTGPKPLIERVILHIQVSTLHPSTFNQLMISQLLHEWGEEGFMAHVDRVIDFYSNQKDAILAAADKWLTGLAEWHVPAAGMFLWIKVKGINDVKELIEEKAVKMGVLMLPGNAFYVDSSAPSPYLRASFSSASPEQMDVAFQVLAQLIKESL
ASSAY OVERVIEW: KAT-II inhibitory test
TEST PARAMETERS: 3.0 μmol/L kynurenine, 37° C., 1 hr, pH 8.0; kynurenic acid quantified by HPLC
Structures can show the parent of a compound that is named as a salt.
IC50 less than 60 nM is YES; IC50 greater than or equal to 60 nM is NO.

Consider the following illustrative entries.
CN(CCn1c(C(F)(F)F)nc2sc(N3CCC[C@@H]3C(=O)NCc3ccccc3)nc2c1=O)CC(F)(F)F [Example 373, hydrochloride]
YES
Cc1noc(-c2nc3sc(N4CCC[C@@H]4C(=O)NCc4ccccc4)nc3c(=O)n2CC(F)F)n1
YES
Cc1cccc(OC(=O)N2CCCN2c2nc3c(=O)[nH]c(C(C)(C)F)nc3s2)c1
YES
O=C(Oc1ccccc1)N1CCC[C@@H]1c1nn2c(=O)c3cc(F)ccc3nc2s1
NO
O=C(NCc1ccccc1)[C@H]1CCCN1c1nc2c(=O)[nH]c(-c3ccccc3F)c(Cl)c2s1
YES
C[C@H](c1nc2c(=O)[nH]c(C3(Cl)CC3)nc2s1)N(C)C(=O)Oc1ccccc1
NO

### Prompt Consider CCOC1(c2cc3sc(N4CCC[C@@H]4C(=O)NCc4ccccc4)nc3c(=O)[nH]2)CC1 . Does its IC50 lie strictly below 60 nM?
### Response YES

### Prompt IC50 strictly < 60 nM for this molecule? O=C(Oc1ccccc1)N1CCC[C@@H]1c1nc2c(=O)[nH]c(C3(CF)CC3)nc2s1
### Response YES

### Prompt Could you please tell me whether IC50 recorded for CCc1nc2sc(N3CCC[C@@H]3C(=O)NCc3cccc(F)c3)nc2c(=O)n1C is less than 60 nM?
### Response YES

### Prompt Could you please tell me whether IC50 recorded for CCc1nc2sc(N3CCC[C@@H]3C(=O)NCc3ccccc3Cl)nn2c(=O)c1F is less than 60 nM?
### Response YES

### Prompt Answer whether the molecule Cc1cccc(CC(=O)N2CCCN2c2nc3c(=O)[nH]c(C(C)(C)F)nc3s2)c1 has IC50 strictly less than 60 nM
### Response NO

### Prompt Check if IC50 falls below 60 nM for CCc1nc2sc(N3CCC[C@@H]3C(=O)NCc3ncccn3)nn2c(=O)c1F .
### Response NO

### Prompt is_below(IC50, 60 nM) for O=C(NCc1ccccc1)[C@H]1CCCN1c1nc2c(=O)[nH]c(C(F)(F)CCS(=O)(=O)c3ccccc3)nc2s1 ?
### Response YES

### Prompt Does the reported IC50 of the following molecule sit strictly below 60 nM? Cc1nc2sc([C@H]3CCCN3C(=O)NC(C)(C)c3ccccc3)nn2c(=O)c1C
### Response NO
